Every entry's value here was drawn from patent US6777237B2.

System: HCT-116 cell line
ASSAY METHOD TEXT: MTT cell viability assay, HCT-116 cell line
Assay type: cell-based, human
MEASUREMENT SETUP: Homo sapiens; HCT-116; unconjugated chlorambucil
OBSERVATION TYPE: IC50 (µM)
Response body: numeric value in µM, unit text excluded.

Looking up O=C(O)CCCc1ccc(N(CCCl)CCCl)cc1 [Chlorambucil, reference compound] , I see its IC50 listed as 20.8
